// provenance: ChEMBL document CHEMBL1148040

Molecular target: Human immunodeficiency virus type 1 reverse transcriptase (Human immunodeficiency virus 1, UniProt Q72547)
Assay: Inhibition of drug-resistant HIV1 reverse transcriptase
ASSAY ENDPOINT: pIC50
Give bare numbers, as −log10 of the molar value.

Query :: For C=C(Cc1ccc2c(c1)OCO2)C(=C)Cc1ccc(O)cc1O , what is its reported pIC50?
Result :: 3.47
